Answer each item with its documented Biological Activity, S. pneumoniae ATCC49619.
- Test system: S. pneumoniae
- Assay Comment: Biological activity against bacterial strains: S. pneumoniae
- Format: cell-based, Streptococcus pneumoniae
- Set-up: unit not given here
- Measurement Setup: strain ATCC49619
Answers are plain numbers.

// below: answered molecules
Molecule: CCC1OC(=O)CC(O)C(C)C(OC2OC(C)C(O)C(N(C)C)C2O)C(CCN2CC(C)CC(C)C2)CC(C)C(=NOCCOc2ccccc2)C=CC(C)=CC1COC1OC(C)C(O)C(OC)C1OC (centres unmarked)
Obs Value: 0.78

Molecule: CCC1OC(=O)CC(O)C(C)C(OC2OC(C)C(O)C(N(C)C)C2O)C(CC=O)CC(C)C(=NOCC=Cc2cnc3ccccc3c2)C=CC(C)=CC1COC(=O)NCc1ccccc1 (centres unmarked)
Obs Value: 0.2

Molecule: CC[C@H]1OC(=O)C[C@@H](O)[C@H](C)[C@@H](OC2OC(C)C(O)C(N(C)C)C2O)[C@@H](CC=O)C[C@@H](C)C(=N\OCCOc2ccccc2)/C=C/C(C)=C/C1CO (some centres unmarked)
Obs Value: 0.20

Molecule: CCC1OC(=O)CC(O)C(C)C(OC2OC(C)C(O)C(N(C)C)C2O)C(CC=O)CC(C)C(=NOCC#Cc2cnc3ccccc3c2)C=CC(C)=CC1CO (single isomer, unassigned) [Compound E]
Obs Value: 0.025

Problem: Give Biological Activity, S. pneumoniae ATCC49619 for the following molecule: CCC1OC(=O)CC(O)C(C)C(OC2OC(C)C(O)C(N(C)C)C2O)C(CCN2CC(C)CC(C)C2)CC(C)C(=NOCCCCOc2ccc3ncccc3c2)C=CC(C)=CC1COC1OC(C)C(O)C(OC)C1OC (single isomer, unassigned) [Compound M]
Solution: 0.01

====

- Test system: S. pneumoniae
- Assay Comment: Biological activity against bacterial strains: S. pneumoniae
- Type: cell-based, Streptococcus pneumoniae
- Design: unit not given here
- Measurement Setup: strain ATCC700676, macrolide resistant strain
Measurement Type: Biological Activity, S. pneumoniae ATCC700676*
One number for each entry.

Solved cases below.
Compound: CCC1OC(=O)CC(O)C(C)C(OC2OC(C)C(O)C(N(C)C)C2O)C(CC=O)CC(C)C(=NOCC#Cc2cnc3ccccc3c2)C=CC(C)=CC1CO (single isomer, unassigned) [Compound E]
Obs Value: 0.025

Compound: CCC1OC(=O)CC(O)C(C)C(OC2OC(C)C(O)C(N(C)C)C2O)C(CCN2CC(C)CC(C)C2)CC(C)C(=NOCCCCOc2ccc3ncccc3c2)C=CC(C)=CC1COC1OC(C)C(O)C(OC)C1OC (single isomer, unassigned) [Compound N]
Obs Value: 1.56

Compound: CCC1OC(=O)CC(O)C(C)C(OC2OC(C)C(O)C(N(C)C)C2O)C(CCN2CC(C)CC(C)C2)CC(C)C(=NOCc2ccc(F)cc2)C=CC(C)=CC1COC1OC(C)C(O)C(OC)C1OC (single isomer, unassigned) [Compound P]
Obs Value: 3.12

Compound: CCC1OC(=O)CC(O)C(C)C(OC2OC(C)C(O)C(N(C)C)C2O)C(CCN2CC(C)CC(C)C2)CC(C)C(=NOCc2ccc(F)cc2)C=CC(C)=CC1COC1OC(C)C(O)C(OC)C1OC (single isomer, unassigned) [Compound Q]
Obs Value: 0.78

Compound: CC[C@H]1OC(=O)C[C@@H](O)[C@H](C)[C@@H](OC2OC(C)C(O)C(N(C)C)C2O)[C@@H](CC=O)C[C@@H](C)C(=N/OCc2ccc(F)cc2)/C=C/C(C)=C/C1CO (stereo partly drawn)
Obs Value: 0.025

Compound: CO[C@@H]1[C@@H](OC2OC(C)C(O)C(N(C)C)C2O)[C@@H](CC=O)C[C@@H](C)C(=N/OCCCOc2ccc3ncccc3c2)/C=C/C=C/C[C@@H](C)OC(=O)C[C@H]1O (stereo partly drawn)
Obs Value: 0.025

Compound: CCC1OC(=O)CC(O)C(C)C(OC2OC(C)C(O)C(N(C)C)C2O)C(CC=O)CC(C)C(=NOCCCOc2ccc3ncccc3c2)C=CC(C)=CC1CN(C)C (single isomer, unassigned) [Compound Z]
Obs Value: 0.025

Next, consider the following compound.
Problem: Let me know recorded Biological Activity, S. pneumoniae ATCC700676* for CCC1OC(=O)CC(O)C(C)C(OC2OC(C)C(O)C(N(C)C)C2O)C(CC=O)CC(C)C(=NOCC=Cc2cnc3ccccc3c2)C=CC(C)=CC1CO (single isomer, unassigned) [Compound F] , thanks.
Solution: 0.049

====

Provide the reported Biological Activity, S. aureus ATCC6538p of each item.
- Test system: S. aureus
- Assay Comment: Biological activity against bacterial strains: S. aureus
- Assay type: cell-based, Staphylococcus aureus
- Set-up: unit not given here
- Measurement Setup: strain ATCC6538p
Answers are plain numbers.

Molecule: CCC1OC(=O)CC(O)C(C)C(OC2OC(C)C(O)C(N(C)C)C2O)C(CCN2CC(C)CC(C)C2)CC(C)C(=NOCC(=O)N2CCN(c3ccccc3)CC2)C=CC(C)=CC1CO (stereo not drawn)
Biological Activity, S. aureus ATCC6538p: 0.39
//
Molecule: CO[C@@H]1[C@@H](OC2OC(C)C(O)C(N(C)C)C2O)[C@@H](CC=O)C[C@@H](C)C(=N/OCCCOc2ccc3ncccc3c2)/C=C/C=C/C[C@@H](C)OC(=O)C[C@H]1O (stereo partly drawn)
Biological Activity, S. aureus ATCC6538p: 0.2
//
Molecule: CCC1OC(=O)CC(O)C(C)C(OC2OC(C)C(O)C(N(C)C)C2O)C(CC=O)CC(C)C(=NOCC=Cc2cnc3ccccc3c2)C=CC(C)=CC1COC(=O)NCc1ccccc1 (stereo not drawn)
Biological Activity, S. aureus ATCC6538p: 1.56

Provide reported Biological Activity, S. aureus ATCC6538p for each item, in the same order as listed.
1. CCC1OC(=O)CC(O)C(C)C(OC2OC(C)C(O)C(N(C)C)C2O)C(CC=O)CC(C)C(=NOCC=Cc2cnc3ccccc3c2)C=CC(C)=CC1CO (single isomer, unassigned) [Compound G]
2. CCC1OC(=O)CC(O)C(C)C(OC2OC(C)C(O)C(N(C)C)C2O)C(CC=O)CC(C)C(=NOCCCOc2ccc3ncccc3c2)C=CC(C)=CC1CO (stereo not drawn)
3. CCC1OC(=O)CC(O)C(C)C(OC2OC(C)C(O)C(N(C)C)C2O)C(CCN2CC(C)CC(C)C2)CC(C)C(=NOCCCOc2ccc3ncccc3c2)C=CC(C)=CC1COC1OC(C)C(O)C(OC)C1OC (single isomer, unassigned) [Compound K]
4. CCC1OC(=O)CC(O)C(C)C(OC2OC(C)C(O)C(N(C)C)C2O)C(CCN2CC(C)CC(C)C2)CC(C)C(=NOCCOc2ccccc2)C=CC(C)=CC1COC1OC(C)C(O)C(OC)C1OC (stereo not drawn)
5. CC[C@H]1OC(=O)C[C@@H](O)[C@H](C)[C@@H](O[C@@H]2O[C@H](C)[C@@H](O)[C@H](N(C)C)[C@H]2O)[C@@H](CC=O)C[C@@H](C)C(=O)/C=C/C(C)=C/[C@@H]1CO [OMT, 5-O-mycaminosyltylonolide, reference compound]
6. CC[C@H]1OC(=O)C[C@@H](O)[C@H](C)[C@@H](O[C@@H]2O[C@H](C)[C@@H](O)[C@H](N(C)C)[C@H]2O)[C@@H](CCN2C[C@H](C)C[C@H](C)C2)C[C@@H](C)C(=O)/C=C/C(C)=C/[C@@H]1CO[C@@H]1O[C@H](C)[C@@H](O)[C@@H](OC)[C@H]1OC [Tilm, tilmicosin, reference compound]

Solution:
[0.20, 0.025, 0.20, 0.20, 0.39, 0.098]

====

Assignment: determine reported Biological Activity, S. pneumoniae ATCC700676* for the given molecules.
- Tested on: S. pneumoniae
- Assay Comment: Biological activity against bacterial strains: S. pneumoniae
- Format: cell-based, Streptococcus pneumoniae
- Set-up: unit not given here
- Measurement Setup: strain ATCC700676, macrolide resistant strain
Give bare numbers.

Molecule: CC[C@H]1OC(=O)C[C@@H](O)[C@H](C)[C@@H](OC2OC(C)C(O)C(N(C)C)C2O)[C@@H](CC=O)C[C@@H](C)C(=N\OCc2ccc(F)cc2)/C=C/C(C)=C/C1CO (stereo partly drawn) [Compound IIc]
Obs Value: 0.2

Problem: Using the record for CC[C@H]1OC(=O)[C@H](C)[C@@H](O[C@H]2C[C@@](C)(OC)[C@@H](O)[C@H](C)O2)[C@H](C)[C@@H](O[C@@H]2O[C@H](C)C[C@H](N(C)C)[C@H]2O)[C@](C)(O)C[C@@H](C)C(=O)[C@H](C)[C@@H](O)[C@]1(C)O [Ery A, erythromycin A, reference compound] , state its measured Biological Activity, S. pneumoniae ATCC700676*.
Solution: 6.25

====

Consider the following compounds; for each one, report its Biological Activity, S. pneumoniae ATCC700676*.
- Tested on: S. pneumoniae
- Assay Comment: Biological activity against bacterial strains: S. pneumoniae
- Assay type: cell-based, Streptococcus pneumoniae
- Set-up: unit not given here
- Measurement Setup: strain ATCC700676, macrolide resistant strain
Numbers only.

In the examples that follow, each entry is paired with its recorded Biological Activity, S. pneumoniae ATCC700676*.
Compound: CCC1OC(=O)CC(O)C(C)C(OC2OC(C)C(O)C(N(C)C)C2O)C(CC=O)CC(C)C(=NOCC=Cc2ccc3nccnc3c2)C=CC(C)=CC1CO (centres unmarked)
Obs Value: 0.049

Compound: CCC1OC(=O)CC(O)C(C)C(OC2OC(C)C(O)C(N(C)C)C2O)C(CC=O)CC(C)C(=NOCCCOc2ccc3ncccc3c2)C=CC(C)=CC1COC(=O)NCc1ccccc1 (centres unmarked)
Obs Value: 0.049

Compound: CCC1OC(=O)CC(O)C(C)C(OC2OC(C)C(O)C(N(C)C)C2O)C(CCN2CC(C)CC(C)C2)CC(C)C(=NOCCCOc2ccc3ncccc3c2)C=CC(C)=CC1COC1OC(C)C(O)C(OC)C1OC (single isomer, unassigned) [Compound K]
Obs Value: 0.049

Compound: CCC1OC(=O)CC(O)C(C)C(OC2OC(C)C(O)C(N(C)C)C2O)C(CC=O)CC(C)C(=NOCCCOc2ccc3ncccc3c2)C=CC(C)=CC1COC1OC(C)C(O)C(OC)C1OC (single isomer, unassigned) [Compound AA]
Obs Value: 0.049

We next turn to a different compound, shown below.
Problem: State the measured Biological Activity, S. pneumoniae ATCC700676* (S. pneumoniae) of CC[C@H]1OC(=O)C[C@@H](O)[C@H](C)[C@@H](O[C@@H]2O[C@H](C)[C@@H](O)[C@H](N(C)C)[C@H]2O)[C@@H](CCN2C[C@H](C)C[C@H](C)C2)C[C@@H](C)C(=O)/C=C/C(C)=C/[C@@H]1CO[C@@H]1O[C@H](C)[C@@H](O)[C@@H](OC)[C@H]1OC [Tilm, tilmicosin, reference compound]
Solution: 0.78
